These measurements were taken from ChEMBL document CHEMBL1150783.

system: Staphylococcus aureus; experiment: Antibacterial activity against methicillin-resistant Staphylococcus aureus isolate assessed as percent susceptible isolates by CLSI dilution method; assay type: functional
METRIC: Activity (%)
Numbers only, in %.

>>> value_observed("CN(C)[C@@H]1C(O)=C(C(N)=O)C(=O)[C@@]2(O)C(O)=C3C(=O)c4c(O)cccc4[C@@](C)(O)[C@H]3C[C@@H]12")
25
>>> value_observed("C[C@H]1COc2c(N3CCN(C)CC3)c(F)cc3c(=O)c(C(=O)O)cn1c23.C[C@H]1COc2c(N3CCN(C)CC3)c(F)cc3c(=O)c(C(=O)O)cn1c23.O")
7
>>> value_observed("CCC[C@@H]1C[C@@H](C(=O)N[C@@H]([C@H]2O[C@H](SC)[C@H](O)[C@@H](O)[C@H]2O)[C@H](C)Cl)N(C)C1")
12
>>> value_observed("CN[C@H](CC(C)C)C(=O)N[C@H]1C(=O)N[C@@H](CC(N)=O)C(=O)N[C@H]2C(=O)N[C@H]3C(=O)N[C@H](C(=O)N[C@H](C(=O)O)c4cc(O)cc(O)c4-c4cc3ccc4O)[C@H](O)c3ccc(c(Cl)c3)Oc3cc2cc(c3O[C@@H]2O[C@H](CO)[C@@H](O)[C@H](O)[C@H]2O[C@H]2C[C@](C)(N)[C@H](O)[C@H](C)O2)Oc2ccc(cc2Cl)[C@H]1O")
100
>>> value_observed("Cc1onc(-c2ccccc2)c1C(=O)N[C@@H]1C(=O)N2[C@@H]1SC(C)(C)[C@@H]2C(=O)O")
0
>>> value_observed("CC(=O)NC[C@H]1CN(c2ccc(N3CCOCC3)c(F)c2)C(=O)O1")
100

Turning now to a further record.
Query string: Form field: reported Activity of CC[C@H]1OC(=O)[C@H](C)[C@@H](O[C@H]2C[C@@](C)(OC)[C@@H](O)[C@H](C)O2)[C@H](C)[C@@H](O[C@@H]2O[C@H](C)C[C@H](N(C)C)[C@H]2O)[C@](C)(O)C[C@@H](C)C(=O)[C@H](C)[C@@H](O)[C@]1(C)O
Result string: 5
